quantity: Ki

Param readout = Ki; param system = KDR (Homo sapiens); param query = CC(C)NC(=O)C1CCCC1Nc1nc(Nc2cnn(C3CCNCC3)c2)ncc1Cl (racemic) ; response: value
100 to 1000 nM

Find Ki (KDR (Homo sapiens)) for the entry NC(=O)[C@@H]1[C@H]2CC[C@H](C2)[C@@H]1Nc1nc(Nc2cnn(CCO)c2)ncc1Cl.NC(=O)[C@H]1[C@@H]2CC[C@@H](C2)[C@H]1Nc1nc(Nc2cnn(CCO)c2)ncc1Cl (mixture of isomers)
< 100 nM

Value wanted: Ki (KDR (Homo sapiens)) of entry NC(=O)[C@@H]1[C@H](Nc2nc(Nc3cnn(Cc4ccccc4Cl)c3)ncc2Br)[C@H]2C=C[C@@H]1C2
< 100 nM

Missing value: Ki, KDR (Homo sapiens), entry C[C@@H](O)Cn1cc(Nc2ncc(F)c(N[C@@H]3[C@H]4CC[C@H](C4)[C@@H]3C(N)=O)n2)cn1.C[C@@H](O)Cn1cc(Nc2ncc(F)c(N[C@H]3[C@@H]4CC[C@@H](C4)[C@H]3C(N)=O)n2)cn1 (mixture of isomers) . Fill in?
1000 to 5000 nM

// lookup Ki | system=KDR (Homo sapiens) | key= NC(=O)[C@@H]1[C@H](Nc2nc(Nc3cnn([C@H]4CCOC4)c3)ncc2Cl)[C@H]2C=C[C@@H]1C2
< 100 nM

###

# experimental_system: Aurora B (Homo sapiens, UniProt Q96GD4)
# Construct: Active Aurora B enzyme (recombinant residues 1-344)
# Sequence (Q96GD4 whole entry, the tested form may be a part): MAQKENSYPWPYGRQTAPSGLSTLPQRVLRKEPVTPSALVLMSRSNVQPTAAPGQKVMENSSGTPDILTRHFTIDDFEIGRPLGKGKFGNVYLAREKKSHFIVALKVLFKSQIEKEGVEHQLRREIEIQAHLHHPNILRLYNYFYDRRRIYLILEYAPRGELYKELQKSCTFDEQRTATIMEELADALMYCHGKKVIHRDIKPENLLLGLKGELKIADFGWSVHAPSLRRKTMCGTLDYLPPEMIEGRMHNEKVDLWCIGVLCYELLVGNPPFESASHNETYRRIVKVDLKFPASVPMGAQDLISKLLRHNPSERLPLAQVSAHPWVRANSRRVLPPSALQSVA
# Sequence (Q9NQS7 826-918 partner limits assumed): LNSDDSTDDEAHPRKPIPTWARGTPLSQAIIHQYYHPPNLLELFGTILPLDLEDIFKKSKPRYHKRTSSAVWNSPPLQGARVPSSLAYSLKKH
# assay_info: Aurora B enzyme inhibition (time-resolved fluorescence, histone H3 peptide)
# assay_context: 1 mM ATP
pKi: −log10 of the molar value.
quantity: pKi

# get_value(readout= pKi, system= Aurora B (Homo sapiens, UniProt Q96GD4)) for Cn1cc(Nc2ncc(F)c(N[C@@H]3[C@H]4CC[C@H](C4)[C@@H]3C(N)=O)n2)cn1.Cn1cc(Nc2ncc(F)c(N[C@H]3[C@@H]4CC[C@@H](C4)[C@H]3C(N)=O)n2)cn1 (mixture of isomers) [Example 12]
> 7.00

Request body: readout pKi, system Aurora B (Homo sapiens, UniProt Q96GD4), query Cc1nn(C)c(C)c1Nc1ncc(Br)c(N[C@H]2[C@@H](C(N)=O)[C@@H]3C=C[C@H]2C3)n1 [Example 128] . Return the value.
6.00 to 7.00

Query pKi on Aurora B (Homo sapiens, UniProt Q96GD4) for CCn1cc(Nc2ncc(Cl)c(N[C@@H]3[C@H](C(N)=O)[C@@H]4C=C[C@H]3C4)n2)cn1.CCn1cc(Nc2ncc(Cl)c(N[C@H]3[C@@H](C(N)=O)[C@H]4C=C[C@@H]3C4)n2)cn1 (mixture of isomers) [Example 121]
> 7.00

Request body: readout pKi, system Aurora B (Homo sapiens, UniProt Q96GD4), query CCn1cc(Nc2ncc(Br)c(N[C@H]3[C@@H](C(N)=O)C[C@H]4C[C@@H]3C4(C)C)n2)cn1 [Example 183] . Return the value.
> 7.00

Look up pKi with Aurora B (Homo sapiens, UniProt Q96GD4) for this compound: Cn1cc(Nc2ncc(C(F)(F)F)c(Nc3ccccc3C3(O)CNC3)n2)cn1 [Example 109]
> 7.00

Given the entry CN1CCN(CCn2cc(Nc3ncc(Cl)c(N[C@H]4[C@@H](C(N)=O)[C@@H]5C=C[C@H]4C5)n3)cn2)CC1 [Example 91] , what pKi was observed with Aurora B (Homo sapiens, UniProt Q96GD4)?
> 7.00

###

quantity: Ki

Fill in the recorded Ki for this compound, with UniProt P35968 as test system: Cc1cnc(Nc2cnn(CCO)c2)nc1N[C@@H]1[C@H](C(N)=O)[C@H]2C=C[C@@H]1C2.Cc1cnc(Nc2cnn(CCO)c2)nc1N[C@H]1[C@@H](C(N)=O)[C@@H]2C=C[C@H]1C2 (mixture of isomers)
100 to 1000 nM

Fill in the recorded Ki for this compound, with UniProt P35968 as test system: NC(=O)[C@@H]1[C@H](Nc2nc(Nc3cnn(C[C@H](O)CO)c3)ncc2Br)[C@H]2C=C[C@@H]1C2
< 100 nM

Which measured Ki belongs to CC1(C)[C@H]2C[C@H](C(N)=O)[C@H](Nc3nc(Nc4cnn(Cc5ccccc5)c4)ncc3Cl)[C@@H]1C2 , tested on UniProt P35968?
< 100 nM

API: value(readout= Ki, system= UniProt P35968, query= Cn1cc(Nc2ncc(Cl)c(Nc3ccccc3C(C)(C)O)n2)cn1 )
< 100 nM

I'm curious: which Ki was measured for CC(C)NC(=O)[C@@H]1CCC[C@@H]1Nc1nc(Nc2cnn(C)c2)ncc1Cl.CC(C)NC(=O)[C@H]1CCC[C@H]1Nc1nc(Nc2cnn(C)c2)ncc1Cl (mixture of isomers) tested on UniProt P35968?
100 to 1000 nM

// fetch UniProt P35968 Ki for NC(=O)[C@@H]1[C@H](Nc2nc(Nc3cnn([C@H]4CCNC4)c3)ncc2Cl)[C@H]2C=C[C@@H]1C2
< 100 nM

###

Assignment: determine reported Ki for the given molecules.
# experimental_system: Aurora A (Homo sapiens)
# Sequence (O14965 whole entry): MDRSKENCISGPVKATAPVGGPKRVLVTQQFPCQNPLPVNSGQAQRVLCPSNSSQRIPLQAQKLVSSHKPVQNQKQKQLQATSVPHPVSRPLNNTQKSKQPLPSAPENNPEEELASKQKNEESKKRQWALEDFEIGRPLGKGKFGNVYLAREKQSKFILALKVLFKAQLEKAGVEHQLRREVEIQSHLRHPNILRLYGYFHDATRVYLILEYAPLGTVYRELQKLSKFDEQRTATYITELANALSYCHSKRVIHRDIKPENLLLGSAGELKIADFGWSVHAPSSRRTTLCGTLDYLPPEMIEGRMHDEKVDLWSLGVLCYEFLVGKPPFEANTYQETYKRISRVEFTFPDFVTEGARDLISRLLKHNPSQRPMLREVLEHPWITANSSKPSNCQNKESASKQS
# assay_info: Aurora A enzyme inhibition (time-resolved fluorescence, STK substrate-2)
# Type: biochemical
# assay_context: 1 mM ATP

Returns the measured Ki for the input molecule. Input: COCCn1cc(Nc2ncc(Br)c(N[C@H]3[C@@H](C(N)=O)[C@@H]4C=C[C@H]3C4)n2)cn1
< 100 nM

# Ki lookup, item Cn1cc(Nc2ncc(Cl)c(N[C@@H]3[C@@H]4CC[C@@H](C4)[C@@H]3C(N)=O)n2)cn1.Cn1cc(Nc2ncc(Cl)c(N[C@H]3[C@H]4CC[C@H](C4)[C@H]3C(N)=O)n2)cn1 (mixture of isomers)
< 100 nM

Entry NC(=O)[C@@H]1[C@H](Nc2nc(Nc3cnn(CCc4ccccc4)c3)ncc2Br)[C@H]2C=C[C@@H]1C2 : reported Ki = ?
< 100 nM

###

# experimental_system: KDR (Homo sapiens)
# assay_info: KDR cellular assay (KDR receptor phosphorylation ELISA)
# assay_context: KDR transfected 3T3 (embryonic mouse) cells, VEGF stimulated; read-out: IC50 inhibition of KDR phosphorylation
# Protocol: The ability of compounds to inhibit KDR receptor phosphorylation in cells was measured by ELISA following the protocol outlined below. KDR transfected 3T3 (embryonic mouse) cells added to 96-well tissue culture plates at 20,000 cells/well. […] As assay plates developed, the plates were each monitored on a Molecular Devices Spectramax set to 650 nm, until the signal in the high control wells was around 0.6 OD and the signal in the negative control wells was around 0.1-0.15 OD. […]
# Sequence (P35968 20-1356): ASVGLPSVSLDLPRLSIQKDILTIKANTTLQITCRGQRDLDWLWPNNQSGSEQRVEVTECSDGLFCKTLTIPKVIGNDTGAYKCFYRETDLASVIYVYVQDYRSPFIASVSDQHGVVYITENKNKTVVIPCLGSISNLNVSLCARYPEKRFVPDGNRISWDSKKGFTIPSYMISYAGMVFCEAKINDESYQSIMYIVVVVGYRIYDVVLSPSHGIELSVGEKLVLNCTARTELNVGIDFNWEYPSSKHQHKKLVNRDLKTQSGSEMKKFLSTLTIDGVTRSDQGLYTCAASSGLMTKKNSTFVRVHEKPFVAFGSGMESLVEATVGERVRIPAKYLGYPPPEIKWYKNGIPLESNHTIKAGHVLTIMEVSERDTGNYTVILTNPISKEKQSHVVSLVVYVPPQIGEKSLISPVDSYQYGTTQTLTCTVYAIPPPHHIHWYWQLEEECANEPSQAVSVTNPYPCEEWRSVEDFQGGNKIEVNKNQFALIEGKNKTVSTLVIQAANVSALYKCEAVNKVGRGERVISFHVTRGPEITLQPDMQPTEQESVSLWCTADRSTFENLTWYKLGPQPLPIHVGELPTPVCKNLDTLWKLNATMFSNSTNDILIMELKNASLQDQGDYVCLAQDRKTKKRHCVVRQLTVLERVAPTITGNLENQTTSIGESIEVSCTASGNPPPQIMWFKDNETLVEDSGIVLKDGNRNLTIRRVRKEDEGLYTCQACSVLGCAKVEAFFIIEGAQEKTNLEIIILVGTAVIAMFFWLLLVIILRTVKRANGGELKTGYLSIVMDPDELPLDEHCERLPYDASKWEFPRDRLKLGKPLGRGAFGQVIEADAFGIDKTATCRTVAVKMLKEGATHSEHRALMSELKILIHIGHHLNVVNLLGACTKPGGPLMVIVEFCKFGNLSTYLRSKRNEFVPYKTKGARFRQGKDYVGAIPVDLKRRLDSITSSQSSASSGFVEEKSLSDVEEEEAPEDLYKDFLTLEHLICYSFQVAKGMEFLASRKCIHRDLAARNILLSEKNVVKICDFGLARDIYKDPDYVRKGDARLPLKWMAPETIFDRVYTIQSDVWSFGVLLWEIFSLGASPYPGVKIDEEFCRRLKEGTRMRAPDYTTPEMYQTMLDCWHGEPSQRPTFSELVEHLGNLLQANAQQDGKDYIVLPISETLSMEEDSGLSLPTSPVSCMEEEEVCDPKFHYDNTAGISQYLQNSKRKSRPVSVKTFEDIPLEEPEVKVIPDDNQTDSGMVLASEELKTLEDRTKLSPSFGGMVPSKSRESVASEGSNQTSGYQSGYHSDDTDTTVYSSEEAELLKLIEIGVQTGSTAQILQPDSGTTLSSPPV
quantity: IC50

Given NC(=O)[C@@H]1[C@H](Nc2nc(Nc3cnn(Cc4cccc(Cl)c4)c3)ncc2Cl)[C@H]2C=C[C@@H]1C2 [Example 157] , state its recorded IC50.
< 100 nM

# get_value(readout='IC50', item= CC(C)NC(=O)[C@@H]1CCC[C@@H]1Nc1nc(Nc2cnn(C)c2)ncc1Cl.CC(C)NC(=O)[C@H]1CCC[C@H]1Nc1nc(Nc2cnn(C)c2)ncc1Cl (mixture of isomers) [Example 156] )
100 to 1000 nM

Which IC50 value belongs to Cn1cc(Nc2ncc(Cl)c(N[C@H]3[C@@H](C(N)=O)C[C@H]4C[C@@H]3C4(C)C)n2)cn1 [Example 165] ?
100 to 1000 nM

Entry NC(=O)[C@@H]1[C@H](Nc2nc(Nc3cnn(C[C@H](O)CO)c3)ncc2Br)[C@H]2C=C[C@@H]1C2 [Example 131] : reported IC50 = ?
100 to 1000 nM

Fill blank: measured IC50 of the compound Cn1cc(Nc2ncc(Br)c(Nc3ccccc3C3(O)CCC3)n2)cn1 [Example 132] is ____.
100 to 1000 nM

Which measured IC50 value corresponds to Cn1cc(Nc2ncc(Br)c(N[C@H]3[C@@H](C(N)=O)C[C@H]4C[C@@H]3C4(C)C)n2)cn1 [Example 182] ?
100 to 1000 nM

Suppose we examine the compound Cc1nn(C)cc1Nc1ncc(Br)c(N[C@H]2[C@@H](C(N)=O)[C@@H]3C=C[C@H]2C3)n1 [Example 135] ; what IC50 value has been reported?
< 100 nM

I would be grateful if you could share the reported IC50 for CC1(C)[C@H]2C[C@H](C(N)=O)[C@H](Nc3nc(Nc4cnn(C5CCNCC5)c4)ncc3Cl)[C@@H]1C2 [Example 191] .
100 to 1000 nM

Record request: IC50 value, item COCCn1cc(Nc2ncc(Cl)c(N[C@H]3[C@@H](C(N)=O)[C@@H]4C=C[C@H]3C4)n2)cn1 [Example 96]
< 100 nM

Which IC50 value is on record for CC1(C)[C@H]2C[C@H](C(N)=O)[C@H](Nc3nc(Nc4cnn(CCc5ccccc5)c4)ncc3Cl)[C@@H]1C2 [Example 188] ?
100 to 1000 nM

What value of IC50 has been recorded for this entry: NC(=O)[C@@H]1[C@H](Nc2nc(Nc3cnn(C4CCNCC4)c3)ncc2Br)[C@H]2C=C[C@@H]1C2 [Example 95]
< 100 nM

May I ask what IC50 has been recorded for C[C@@H](O)Cn1cc(Nc2ncc(Cl)c(N[C@H]3[C@@H](C(N)=O)[C@@H]4C=C[C@H]3C4)n2)cn1 [Example 105] ?
< 100 nM

Reported IC50 for Cn1cc(Nc2ncc(C(F)(F)F)c(Nc3cn(C)nc3C(N)=O)n2)cn1 [Example 153] : what is it?
100 to 1000 nM

What measured IC50 goes with Cn1cc(Nc2ncc(Cl)c(Nc3ccc4[nH]ncc4c3)n2)cn1 [Example 175] ?
100 to 1000 nM
